System: EPHA1;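 note: KINOMEscan kinase panel screen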
Conditions: concentration: 1 μM, replicates: in singlicate; n = 1
Property name: %Inh (%)
// return numeric value only (unit: %, not printed)

The molecule identified as Nc1ncnc2c1ncn2-c1ccc(Cl)cc1 [AH2635] registered its %Inh at 0

get_value(item= Nc1ncnc2c1ncn2-c1cccc2ccccc12 [SKF-97184] , readout=%Inh) returns 0

Please fill in: %Inh reported for CN1C(=O)C(Nc2ccccc2)=C(c2ccccc2)C1=O [SB-300079] = 0

Query Cc1nn2c(=O)cc(N3CCOCC3)nc2n1Cc1cccc(Cl)c1Cl [GSK2342769] yields %Inh of 10

In plain terms, COc1cc(Nc2nccc(N3CCC(NC(=O)C(C)c4ccc(Cl)cc4)C3)n2)cc(OC)c1OC (centres unmarked) [GSK1379757] has a documented %Inh of 4

%Inh reported for this molecule "CCC(=O)c1c(-c2ccccc2)c2cc(Cl)ccc2c(=O)n1Cc1ccc(C(=O)O)cc1" : 0

Input CCn1c(-c2nonc2N)nc2ccccc21 [SB-693162/GW549034] . Output %Inh: 0

Measured %Inh of CCn1c(-c2ccoc2)nc2cnccc21 [SB-733887] : 9
